B1: Azoarcus group I ribozyme (parent)
chain: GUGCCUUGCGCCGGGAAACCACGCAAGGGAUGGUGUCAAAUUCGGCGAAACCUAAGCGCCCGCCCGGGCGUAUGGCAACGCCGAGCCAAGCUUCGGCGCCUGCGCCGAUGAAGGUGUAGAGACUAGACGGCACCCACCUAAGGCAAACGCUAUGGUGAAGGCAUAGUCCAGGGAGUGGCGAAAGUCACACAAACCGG

Variants of: B1
ASSAY NOTES: reverse-splicing fitness (ratio to wild type); higher = more active; in vitro selection; Mg2+ level not given
This listing pairs variants with measured reverse-splicing fitness.
Write the number on its own, no unit after it.

Request: Dear colleague, I am looking for the recorded reverse-splicing fitness of the following variant: C82U A111U A120C A145U C169G U176A
Result: 0.00882

Request: Dear colleague, I am looking for the recorded reverse-splicing fitness of the following variant: C82G A111G A120G C150U C169A
Result: 0.0118

Request: Dear colleague, I am looking for the recorded reverse-splicing fitness of the following variant: A111G A120G A145U C150G C169A U176G
Result: 0.00435

Request: Dear colleague, I am looking for the recorded reverse-splicing fitness of the following variant: C82U A111C A145C C169U U176G
Result: 0.00632

Request: Dear colleague, I am looking for the recorded reverse-splicing fitness of the following variant: C82A A111G A145U C150U U176C
Result: 0.166

Request: Dear colleague, I am looking for the recorded reverse-splicing fitness of the following variant: C82G A111U A120C A145C C150G C169A
Result: 0.0104

Request: Dear colleague, I am looking for the recorded reverse-splicing fitness of the following variant: C82U A111U A145U C169G U176A
Result: 0.0101

Request: Dear colleague, I am looking for the recorded reverse-splicing fitness of the following variant: C82A A111G A145U C150G C169G U176C
Result: 0.00567

Request: Dear colleague, I am looking for the recorded reverse-splicing fitness of the following variant: A111C A120G A145G C150G C169A
Result: 0.0166

Request: Dear colleague, I am looking for the recorded reverse-splicing fitness of the following variant: C82G A111G A120G A145G C169G
Result: 0.0197

Request: Dear colleague, I am looking for the recorded reverse-splicing fitness of the following variant: C82G A111C C150U C169G U176G
Result: 0.00784

Request: Dear colleague, I am looking for the recorded reverse-splicing fitness of the following variant: C82A A120C A145G C150G C169G U176G
Result: 0.00719

Request: Dear colleague, I am looking for the recorded reverse-splicing fitness of the following variant: C82U A111U A120C A145G C169U
Result: 0.0112

Request: Dear colleague, I am looking for the recorded reverse-splicing fitness of the following variant: C82G A120U A145G C150U
Result: 0.168

Request: Dear colleague, I am looking for the recorded reverse-splicing fitness of the following variant: C82A A111C A145G C150G U176A
Result: 0.00936

Request: Dear colleague, I am looking for the recorded reverse-splicing fitness of the following variant: C82G A111U A120C A145U C169A U176G
Result: 0.00591

Request: Dear colleague, I am looking for the recorded reverse-splicing fitness of the following variant: C82G A111G A120G A145C C150G C169A U176G
Result: 0.00562
